Test system: Serratia marcescens
Experiment: Antimicrobial activity against Serratia marcescens by broth microdilution method
Type: functional
Recorded MIC50 values for a group of compounds are listed next.
Just the number please, in µg/mL, no unit attached.

compound=c1cc2cc(-c3ccc(-c4cc5ccc(C6=NCCN6)cc5[nH]4)cc3)[nH]c2cc1C1=NCCN1 measurement_kind=MIC50 u=µg/mL result=1

Request: Name the recorded MIC50 for C[C@@H](O)[C@H]1C(=O)N2C(C(=O)O)=C(SCCNC=N)C[C@H]12 [IMIPENEM ANHYDROUS] .
Response: 4

Request: Name the recorded MIC50 for `c1cc2cc(-c3ccc(-c4cc5ccc(C6=NCCCN6)cc5[nH]4)cc3)[nH]c2cc1C1=NCCCN1` .
Response: 0.12

Request: Name the recorded MIC50 for CN(C)c1cc(NC(=O)CNC(C)(C)C)c(O)c2c1C[C@H]1C[C@H]3[C@H](N(C)C)C(O)=C(C(N)=O)C(=O)[C@@]3(O)C(O)=C1C2=O [TIGECYCLINE] .
Response: 0.5

* * *

Recorded MIC50 values for a group of molecules are listed next.
System: Enterococcus faecium
Assay: Antimicrobial activity against vancomycin-susceptible Enterococcus faecium by broth microdilution method
Format: functional
Just the number please, in µg/mL, no unit attached.

smi=c1cc2cc(-c3ccc(-c4cc5ccc(C6=NCCN6)cc5[nH]4)cc3)[nH]c2cc1C1=NCCN1 u=µg/mL result=0.004
smi=c1cc2cc(-c3ccc(-c4cc5ccc(C6=NCCCN6)cc5[nH]4)cc3)[nH]c2cc1C1=NCCCN1 u=µg/mL result=0.004
smi=CC(=O)NC[C@H]1CN(c2ccc(N3CCOCC3)c(F)c2)C(=O)O1 u=µg/mL result=2
smi=CN[C@H](CC(C)C)C(=O)N[C@H]1C(=O)N[C@@H](CC(N)=O)C(=O)N[C@H]2C(=O)N[C@H]3C(=O)N[C@H](C(=O)N[C@H](C(=O)O)c4cc(O)cc(O)c4-c4cc3ccc4O)[C@H](O)c3ccc(c(Cl)c3)Oc3cc2cc(c3O[C@@H]2O[C@H](CO)[C@@H](O)[C@H](O)[C@H]2O[C@H]2C[C@](C)(N)[C@H](O)[C@H](C)O2)Oc2ccc(cc2Cl)[C@H]1O u=µg/mL result=0.5

Now look at this entry.
Request: Name the recorded MIC50 for `CCCCCCCCCC(=O)N[C@@H](Cc1c[nH]c2ccccc12)C(=O)N[C@H](CC(N)=O)C(=O)N[C@@H](CC(=O)O)C(=O)N[C@@H]1C(=O)NCC(=O)N[C@@H](CCCN)C(=O)N[C@@H](CC(=O)O)C(=O)N[C@H](C)C(=O)N[C@@H](CC(=O)O)C(=O)NCC(=O)N[C@H](CO)C(=O)N[C@@H]([C@H](C)CC(=O)O)C(=O)N[C@@H](CC(=O)c2ccccc2N)C(=O)O[C@@H]1C` .
Response: 4

* * *

System: Enterococcus faecalis
Test: Antimicrobial activity against vancomycin-resistant Enterococcus faecalis by broth microdilution method
Assay type: functional
measurement-kind: MIC50

Take a look at these entries with their results.
compound="CC(=O)NC[C@H]1CN(c2ccc(N3CCOCC3)c(F)c2)C(=O)O1 [LINEZOLID]" result="1 µg/mL"
compound="C[C@@H](O)[C@H]1C(=O)N2C(C(=O)O)=C(SCCNC=N)C[C@H]12 [IMIPENEM ANHYDROUS]" result="2 µg/mL"

Now look at this entry.
Request: MIC50 of `c1cc2cc(-c3ccc(-c4cc5ccc(C6=NCCN6)cc5[nH]4)cc3)[nH]c2cc1C1=NCCN1` on Enterococcus faecalis?
Response: 0.03 µg/mL

* * *

Test system: Staphylococcus epidermidis
Experiment: Antimicrobial activity against methicillin-resistant Staphylococcus epidermidis by broth microdilution method
Type: functional
Recorded MIC50 values for a group of molecules are listed next.
Just the number please, in µg/mL, no unit attached.

Take a look at these entries with their results.
molecule=CCCCCCCCCC(=O)N[C@@H](Cc1c[nH]c2ccccc12)C(=O)N[C@H](CC(N)=O)C(=O)N[C@@H](CC(=O)O)C(=O)N[C@@H]1C(=O)NCC(=O)N[C@@H](CCCN)C(=O)N[C@@H](CC(=O)O)C(=O)N[C@H](C)C(=O)N[C@@H](CC(=O)O)C(=O)NCC(=O)N[C@H](CO)C(=O)N[C@@H]([C@H](C)CC(=O)O)C(=O)N[C@@H](CC(=O)c2ccccc2N)C(=O)O[C@@H]1C result=0.5
molecule="C[C@@H](O)[C@H]1C(=O)N2C(C(=O)O)=C(SCCNC=N)C[C@H]12 [IMIPENEM ANHYDROUS]" result=8
molecule="CN[C@H](CC(C)C)C(=O)N[C@H]1C(=O)N[C@@H](CC(N)=O)C(=O)N[C@H]2C(=O)N[C@H]3C(=O)N[C@H](C(=O)N[C@H](C(=O)O)c4cc(O)cc(O)c4-c4cc3ccc4O)[C@H](O)c3ccc(c(Cl)c3)Oc3cc2cc(c3O[C@@H]2O[C@H](CO)[C@@H](O)[C@H](O)[C@H]2O[C@H]2C[C@](C)(N)[C@H](O)[C@H](C)O2)Oc2ccc(cc2Cl)[C@H]1O [VANCOMYCIN]" result=2

Request: MIC50 of `c1cc2cc(-c3ccc(-c4cc5ccc(C6=NCCCN6)cc5[nH]4)cc3)[nH]c2cc1C1=NCCCN1` on Staphylococcus epidermidis?
Response: 0.015

Request: MIC50 of `c1cc2cc(-c3ccc(-c4cc5ccc(C6=NCCN6)cc5[nH]4)cc3)[nH]c2cc1C1=NCCN1` on Staphylococcus epidermidis?
Response: 0.015

Request: MIC50 of CC(=O)NC[C@H]1CN(c2ccc(N3CCOCC3)c(F)c2)C(=O)O1 [LINEZOLID] on Staphylococcus epidermidis?
Response: 1

* * *

Tested on: Streptococcus pneumoniae
Assay: Antimicrobial activity against penicillin-susceptible Streptococcus pneumoniae by broth microdilution method
Assay type: functional
measurement-kind: MIC90 (µg/mL)
Just the number please, in µg/mL, no unit attached.

Take a look at these entries with their results.
smi=CC(=O)NC[C@H]1CN(c2ccc(N3CCOCC3)c(F)c2)C(=O)O1 result=2
smi=CN[C@H](CC(C)C)C(=O)N[C@H]1C(=O)N[C@@H](CC(N)=O)C(=O)N[C@H]2C(=O)N[C@H]3C(=O)N[C@H](C(=O)N[C@H](C(=O)O)c4cc(O)cc(O)c4-c4cc3ccc4O)[C@H](O)c3ccc(c(Cl)c3)Oc3cc2cc(c3O[C@@H]2O[C@H](CO)[C@@H](O)[C@H](O)[C@H]2O[C@H]2C[C@](C)(N)[C@H](O)[C@H](C)O2)Oc2ccc(cc2Cl)[C@H]1O result=0.25
smi=CCCCCCCCCC(=O)N[C@@H](Cc1c[nH]c2ccccc12)C(=O)N[C@H](CC(N)=O)C(=O)N[C@@H](CC(=O)O)C(=O)N[C@@H]1C(=O)NCC(=O)N[C@@H](CCCN)C(=O)N[C@@H](CC(=O)O)C(=O)N[C@H](C)C(=O)N[C@@H](CC(=O)O)C(=O)NCC(=O)N[C@H](CO)C(=O)N[C@@H]([C@H](C)CC(=O)O)C(=O)N[C@@H](CC(=O)c2ccccc2N)C(=O)O[C@@H]1C result=0.25
smi=c1cc2cc(-c3ccc(-c4cc5ccc(C6=NCCN6)cc5[nH]4)cc3)[nH]c2cc1C1=NCCN1 result=0.03

Now look at this entry.
Request: Name the recorded MIC90 for `c1cc2cc(-c3ccc(-c4cc5ccc(C6=NCCCN6)cc5[nH]4)cc3)[nH]c2cc1C1=NCCCN1` .
Response: 0.03

* * *

Assay: Cytotoxicity against HeLa cells after 3 days by MTS assay
Format: cell-based
Details: human
measurement-kind: CC50 at 72 h (µg/mL)
Just the number please, in µg/mL, no unit attached.

smi=c1cc2cc(-c3ccc(-c4cc5ccc(C6=NCCN6)cc5[nH]4)cc3)[nH]c2cc1C1=NCCN1 u=µg/mL result=33

Now look at this entry.
Request: Name the recorded CC50 at 72 h for `c1cc2cc(-c3ccc(-c4cc5ccc(C6=NCCCN6)cc5[nH]4)cc3)[nH]c2cc1C1=NCCCN1` .
Response: 4

* * *

System: Proteus mirabilis
Experiment: Antimicrobial activity against Proteus mirabilis by broth microdilution method
Assay type: functional
Recorded MIC50 values for a group of compounds are listed next.
Just the number please, in µg/mL, no unit attached.

Take a look at these entries with their results.
compound=O=C(O)c1cn(C2CC2)c2cc(N3CCNCC3)c(F)cc2c1=O result=2
compound="C[C@@H](O)[C@H]1C(=O)N2C(C(=O)O)=C(SCCNC=N)C[C@H]12 [IMIPENEM ANHYDROUS]" result=4
compound=CN(C)c1cc(NC(=O)CNC(C)(C)C)c(O)c2c1C[C@H]1C[C@H]3[C@H](N(C)C)C(O)=C(C(N)=O)C(=O)[C@@]3(O)C(O)=C1C2=O result=0.5

Now look at this entry.
Request: Name the recorded MIC50 for `c1cc2cc(-c3ccc(-c4cc5ccc(C6=NCCCN6)cc5[nH]4)cc3)[nH]c2cc1C1=NCCCN1` .
Response: 1
